target: Fab 4E10; assay: Surface plasmon resonance (Biacore 2000), Fab 4E10 on CM5 chip; assay type: binding, human; conditions: Table 5, unconstrained peptide analogs; 4E10 binding; read-out: Kd
Measure: Kd (nM)
Give the value in nM but do not write nM after it.

Qu. Record request: Kd value, item NWFDITNWLWKKKK [Peptide 84-1, NWFDITNWLWKKKK-NH2]
Ans. 100

###

molecular target: Fab 4E10; assay: Surface plasmon resonance (Biacore 2000), Fab 4E10 on CM5 chip; format: binding, human; conditions: Table 7, 4E10 peptide epitopes; read-out: Kd
Bridges are numbered along the chain shown (N, C = ends). Where no end group is shown, it is not given here. [ ]: non-standard residue; d: D form. code O = not defined here
Task for the reader: assign each of the following substances its reported Kd.

Qu. Recall the recorded Kd for NWFc(CITO)WLWKKKK-NH2 (NWFCIT[code O]WLWKKKK-NH2; bridge 4-7; reading uncertain; also: printed as NWFc(CITO)WLWKKKK-NH2) [Peptide 104-2] with Fab 4E10 and state it.
Ans. 17 nM

Qu. For NWFDITN-Aib-LWRR-NH2 [Peptide 33-1] then?
Ans. 302 nM

Qu. Moving on to the next substance: NWFDITNWLWYIKKKK [Peptide 94-1, NWFDITNWLWYIKKKK-NH2]
Ans. 20 nM
